protocol-details: solubility characteristics of additives
reported-property: solubility

{"columns": ["smiles-string", "reported-property", "result"],
 "data": [
  ["[K+]", "solubility", "Insoluble"],
  ["[Mo]", "solubility", "Insoluble"],
  ["[Cu]", "solubility", "Insoluble"],
  ["Nc1nc2ncc(CNc3ccc(C(=O)N[C@@H](CCC(=O)O)C(=O)O)cc3)nc2c(=O)[nH]1", "solubility", "Insoluble"]
]}

----------
protocol-details: compatibility and stability of additives dissolved or suspended in water-based polyacrylic acid carbomer matrixes
reported-property: stability in carrier matrix

{"columns": ["smiles-string", "result"],
 "data": [
  ["N[C@@H](Cc1c[nH]cn1)C(=O)O", "stable"],
  ["NC(=O)C[C@H](N)C(=O)O", "stable"],
  ["O=C(O)CCCC[C@@H]1SC[C@@H]2NC(=O)N[C@@H]21", "stable"]
]}
